Attribution: ChEMBL document CHEMBL1201862

# Test system: SF-539
# METHOD DESCRIPTION: NCI tumour cell line growth inhibition, 48 h
Active and inactive are the calls of the source. Cut-off read from the data, not from the text of the source: active = GI50 up to about 1.1 µM and inactive = higher.
Provide the reported GI50 of each item.

Examples with their reported GI50 follow.
>  <MOLECULE>
CC1NOC(=O)C1/N=N/c1ccccc1Cl (stereo not given)

>  <GI50>
24.5 µM (inactive)

$$$$
>  <MOLECULE>
C=C1C(=O)O[C@H]2C(=O)[C@H](C)CCC[C@@](C)(O)/C=C\C[C@@]3(C)O[C@@H]3C[C@@H]12

>  <GI50>
19.3 µM (inactive)

$$$$
>  <MOLECULE>
C=CCOCn1ccc(NC(=O)c2ccccc2)nc1=O

>  <GI50>
> 100 µM (inactive)

$$$$
>  <MOLECULE>
C/C(=C\c1ccccc1)C(O)C(=O)c1nc2ccc(Cl)cc2nc1O (stereo not given)

>  <GI50>
> 100 µM (inactive)

$$$$
>  <MOLECULE>
CNC(C)Cc1ccc(O)cc1 (stereo not given)

>  <GI50>
> 100 µM (inactive)

$$$$

For each of the items listed, what is its GI50?
1. Cc1c(-c2ccccc2)c(C#N)c2nnn(-c3ccccc3)c(=O)n12
2. CCCCCC[C@H]1C(=O)O[C@H](C)[C@H](NC(=O)c2cccc(NC=O)c2OC)C(=O)O[C@@H](C)[C@@H]1OC(=O)C(C)CC.CCCCCC[C@H]1C(=O)O[C@H](C)[C@H](NC(=O)c2cccc(NC=O)c2OC)C(=O)O[C@@H](C)[C@@H]1OC(=O)CC(C)C (stereo not given in full)
3. O=C1Oc2ccccc2C(=O)/C1=C1/C=C(c2ccccc2)SS1
4. OC1(c2ccc(Cl)cc2)c2c(ccc3c2OCO3)C2=NCCN21 (stereo not given)

stdout:
1: > 100 µM (inactive); 2: 29.3 µM (inactive); 3: > 100 µM (inactive); 4: 36.1 µM (inactive)

stdin: Using SF-539 as the test system, report measured GI50 of CCOC(=O)CSc1cc[nH]c(=O)n1 .
stdout: > 100 µM (inactive)

---

# Test system: SN12C
# METHOD DESCRIPTION: NCI tumour cell line growth inhibition, 48 h
Activity calls are given as the source filed them. No stated cut-off is given here; in the data, active = GI50 up to about 1.1 µM and inactive = higher.
Response enum: YES = active, NO = inactive

>  <COMPOUND>
Cc1c[n+]2c3ccccc3c3ccccc3c2s1.[O-][Cl+3]([O-])([O-])[O-]

>  <CLASS NAME>
NO

$$$$
>  <COMPOUND>
CC1=NN(c2nc(N)nc(CSCc3nc(N)nc(N(C)C)n3)n2)C(C)(C)C1

>  <CLASS NAME>
NO

$$$$
>  <COMPOUND>
O=c1[nH]nc(-c2ccccc2)n1/N=C/c1ccco1

>  <CLASS NAME>
NO

$$$$

stdin: For this compound, state the assay outcome: CCC1CCN/C(=N/S(=O)(=O)c2cc(C)c(Cl)cc2S)N1 (stereo unspecified)
stdout: NO

stdin: For this compound, state the assay outcome: Cc1ccc(NS(=O)(=O)c2cc(C(C)(C)C)ccc2OCCOCCOCCOc2ccc(C(C)(C)C)cc2S(=O)(=O)Nc2ccc(C)cc2)cc1
stdout: NO

stdin: For this compound, state the assay outcome: CCOC(=O)NN1C(=O)C(=P(c2ccccc2)(c2ccccc2)c2ccccc2)C(C(=O)OC)=C1C
stdout: NO

stdin: For this compound, state the assay outcome: C[C@]12CCC3c4ccc(OC(=O)c5ccccc5)cc4CC[C@H]3C1CC[C@@H]2OC(=O)C12OC1CCC2=O (stereo partly specified)
stdout: NO

stdin: For this compound, state the assay outcome: O=c1c2c(F)c(F)c(F)c(F)c2sc2nccn12
stdout: NO

stdin: For this compound, state the assay outcome: O=C1C=C(Nc2ccccc2C(=O)CC(=O)C(=O)Nc2ccc(Cl)c(Cl)c2)c2ccccc2C1=O
stdout: NO
